B1: library; a variant is named by its letters at N, in order (parent)
chain: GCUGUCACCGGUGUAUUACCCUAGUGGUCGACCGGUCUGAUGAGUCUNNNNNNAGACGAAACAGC

Variants of: B1
Test: normalized RNA/DNA level without ligand (relative to sTRSVctl = 100) (log10 (% of sTRSVctl)); ligand: hypoxanthine (xanthine aptamer); higher = less ribozyme self-cleavage, higher mRNA level
Settings: HEK293T, reporter: mCherry (pCS4076), ligand present: no
Quantity: normalized RNA/DNA level without ligand (log10)
Response field accepts a number only; no unit should be typed.

Solved cases below.
| Residue Change | Numeric Result |
| --- | --- |
| AUUGGG | 1.36 |
| GAGAGC | 1.27 |
| UCCCGU | 1.7 |

Challenge: Report normalized RNA/DNA level without ligand (log10) for AGCAUG please.
Response given: 1.49
